target: HLA-B*27:05; experiment: IEDB peptide-MHC binding, purified MHC/direct/fluorescence; filed as Kd, often an IC50 or EC50 that approximates it; bounds were set here for any values at or beyond the usual limits of such assays; conditions: source organism: Vibrio parahaemolyticus
readoutName: pKd
Field pKd (float): negative decimal logarithm of the concentration in molar.

What measured pKd goes with "IRSCWRYRK" ?
7.13

----------
target: HLA-A*68:02; experiment: IEDB peptide-MHC binding, purified MHC/direct/fluorescence; filed as Kd, often an IC50 or EC50 that approximates it; bounds were set here for any values at or beyond the usual limits of such assays; details: source organism: Escherichia coli O157:H7 str. EC869
readoutName: Kd

What measured Kd goes with "YGSWFGLIY" ?
≥ 20 µM

----------
target: HLA-B*40:01; test: IEDB peptide-MHC binding, purified MHC/competitive/fluorescence; filed as Kd, often an IC50 or EC50 that approximates it; bounds were set here for any values at or beyond the usual limits of such assays; details: source organism: Salmonella enterica subsp. enterica serovar Typhi
readoutName: pKd
Field pKd (float): negative decimal logarithm of the concentration in molar.

Fill in the recorded pKd for this sequence, with HLA-B*40:01 as test system: "AELFVAHYM"
7.97

----------
target: HLA-B*08:01; assay: IEDB peptide-MHC binding, purified MHC/direct/fluorescence; filed as Kd, often an IC50 or EC50 that approximates it; bounds were set here for any values at or beyond the usual limits of such assays; conditions: source organism: Clostridium botulinum NCTC 2916
pKd: −log10 of the molar value.
readoutName: pKd

Fill in the recorded pKd for this sequence, with HLA-B*08:01 as test system: "RVYINVVVK"
≤ 4.70

----------
target: HLA-A*02:01; assay: IEDB peptide-MHC binding, purified MHC/competitive/radioactivity; filed as Kd, often an IC50 or EC50 that approximates it; bounds were set here for any values at or beyond the usual limits of such assays; settings: source organism: Trypanosoma cruzi
readoutName: pKd
Field pKd (float): negative decimal logarithm of the concentration in molar.

What measured pKd goes with "GLLLLLLLLG" ?
6.77

----------
molecular target: HLA-A*11:01; assay: IEDB peptide-MHC binding, purified MHC/direct/fluorescence; filed as Kd, often an IC50 or EC50 that approximates it; bounds were set here for any values at or beyond the usual limits of such assays; details: source organism: Giardia intestinalis
readoutName: Kd

Fill in the recorded Kd for this sequence, with HLA-A*11:01 as test system: "GYTPGQQFY"
≥ 20 µM

----------
molecular target: HLA-B*45:06; experiment: IEDB peptide-MHC binding, purified MHC/competitive/fluorescence; filed as Kd, often an IC50 or EC50 that approximates it; bounds were set here for any values at or beyond the usual limits of such assays; settings: source organism: Mycobacterium tuberculosis C
pKd: −log10 of the molar value.
readoutName: pKd

What measured pKd goes with "LPAEVRAAF" ?
≤ 5.30

----------
target: HLA-A*02:01; assay: IEDB peptide-MHC binding, purified MHC/competitive/fluorescence; filed as Kd, often an IC50 or EC50 that approximates it; bounds were set here for any values at or beyond the usual limits of such assays; details: source organism: Influenza A virus (A/Yokohama/22/2002(H1N2))
pKd: −log10 of the molar value.
readoutName: pKd

What measured pKd goes with "WTGMVDGWY" ?
≤ 4.70

----------
molecular target: HLA-B*15:17; assay: IEDB peptide-MHC binding, purified MHC/competitive/fluorescence; filed as Kd, often an IC50 or EC50 that approximates it; bounds were set here for any values at or beyond the usual limits of such assays; conditions: source organism: Mycobacterium leprae
readoutName: Kd

What measured Kd goes with "TVGYMYIMK" ?
≥ 20 µM

----------
molecular target: HLA-A*01:01; assay: IEDB peptide-MHC binding, purified MHC/direct/fluorescence; filed as Kd, often an IC50 or EC50 that approximates it; bounds were set here for any values at or beyond the usual limits of such assays; details: source organism: Cryptosporidium parvum
readoutName: Kd (nM)
// note: answer is a bare numeric in nM

What measured Kd goes with "NTSTCFQEY" ?
30.5

----------
target: HLA-B*39:01; assay: IEDB peptide-MHC binding, purified MHC/competitive/fluorescence; filed as Kd, often an IC50 or EC50 that approximates it; bounds were set here for any values at or beyond the usual limits of such assays; conditions: source organism: Orthohantavirus sinnombreense
pKd: −log10 of the molar value.
readoutName: pKd

Fill in the recorded pKd for this sequence, with HLA-B*39:01 as test system: "GSFRKICGF"
≤ 4.70

----------
biological target: HLA-A*26:02; test: IEDB peptide-MHC binding, purified MHC/direct/fluorescence; filed as Kd, often an IC50 or EC50 that approximates it; bounds were set here for any values at or beyond the usual limits of such assays; conditions: source organism: Bacillus anthracis str. A0465
readoutName: Kd (nM)
// note: answer is a bare numeric in nM

What measured Kd goes with "FFLFPMAAY" ?
2

----------
biological target: HLA-A*03:01; assay: IEDB peptide-MHC binding, purified MHC/competitive/fluorescence; filed as Kd, often an IC50 or EC50 that approximates it; bounds were set here for any values at or beyond the usual limits of such assays; details: source organism: Vibrio cholerae 2740-80
readoutName: Kd

What measured Kd goes with "IFIRTIYYH" ?
≥ 20 µM

What measured Kd goes with "KQLPPLAAW" ?
≥ 20 µM

What measured Kd goes with "VLRRGALAH" ?
0.014 µM

----------
So I've got a bunch of sequences here, and I need their pKd values.
biological target: HLA-A*68:01; assay: IEDB peptide-MHC binding, purified MHC/competitive/radioactivity; filed as Kd, often an IC50 or EC50 that approximates it; bounds were set here for any values at or beyond the usual limits of such assays; conditions: source organism: Vaccinia virus WR
Field pKd (float): negative decimal logarithm of the concentration in molar.

What measured pKd goes with "IILFILFFAY" ?
6.49

What measured pKd goes with "NLDLFMSHVK" ?
6.07

What measured pKd goes with "TSETMYLTMK" ?
6.33

What measured pKd goes with "LIIGPMFSGK" ?
8.00

What measured pKd goes with "RSNAILHNIY" ?
5.99

What measured pKd goes with "ASILSLETVK" ?
5.75

What measured pKd goes with "ILSKIPYLR" ?
7.88

What measured pKd goes with "KSNILMWNK" ?
5.54

What measured pKd goes with "ALYYVHSLLY" ?
5.65

What measured pKd goes with "EFIFSALDEK" ?
8.89

What measured pKd goes with "FMLIFNVKSK" ?
7.42

What measured pKd goes with "SVTKSSSWK" ?
7.39

What measured pKd goes with "AMYYAVLSEY" ?
6.01

----------
molecular target: HLA-A*26:01; assay: IEDB peptide-MHC binding, purified MHC/competitive/fluorescence; filed as Kd, often an IC50 or EC50 that approximates it; bounds were set here for any values at or beyond the usual limits of such assays; details: source organism: Influenza A virus (A/Waikato/7/2000(H3N2))
readoutName: Kd (nM)
// note: answer is a bare numeric in nM

What measured Kd goes with "DTVHDRTPY" ?
41.4

----------
biological target: HLA-B*51:01; experiment: IEDB peptide-MHC binding, purified MHC/competitive/radioactivity; filed as Kd, often an IC50 or EC50 that approximates it; bounds were set here for any values at or beyond the usual limits of such assays; conditions: source organism: Mammarenavirus lassaense
readoutName: Kd (µM)
// note: answer is a bare numeric in µM

What measured Kd goes with "YPNSSDLDM" ?
0.78

----------
biological target: HLA-A*02:17; assay: IEDB peptide-MHC binding, purified MHC/competitive/radioactivity; filed as Kd, often an IC50 or EC50 that approximates it; bounds were set here for any values at or beyond the usual limits of such assays; conditions: source organism: Dengue virus 3 Martinique/1243/1999
readoutName: pKd
Field pKd (float): negative decimal logarithm of the concentration in molar.

What measured pKd goes with "MLWMAEIPL" ?
8.04

----------
molecular target: HLA-A*26:01; assay: IEDB peptide-MHC binding, purified MHC/competitive/fluorescence; filed as Kd, often an IC50 or EC50 that approximates it; bounds were set here for any values at or beyond the usual limits of such assays; conditions: source organism: Reston ebolavirus - Reston (1989)
pKd: −log10 of the molar value.
readoutName: pKd

What measured pKd goes with "FSDLCNFLI" ?
≤ 4.70

----------
target: HLA-A*02:16; experiment: IEDB peptide-MHC binding, purified MHC/competitive/fluorescence; filed as Kd, often an IC50 or EC50 that approximates it; bounds were set here for any values at or beyond the usual limits of such assays; details: source organism: Giardia lamblia ATCC 50803
readoutName: Kd

What measured Kd goes with "MARPADASM" ?
≥ 20 µM

----------
biological target: HLA-B*15:01; experiment: IEDB peptide-MHC binding, purified MHC/direct/fluorescence; filed as Kd, often an IC50 or EC50 that approximates it; bounds were set here for any values at or beyond the usual limits of such assays; conditions: source organism: Listeria monocytogenes serotype 4b str. H7858
So I've got a bunch of sequences here, and I need their Kd values.

Fill in the recorded Kd for this sequence, with HLA-B*15:01 as test system: "FPDGKPFTL"
≥ 20 µM

Fill in the recorded Kd for this sequence, with HLA-B*15:01 as test system: "ERYPGGVSL"
≥ 20 µM
